# targetEntity: Stp1 (UniProt B3LFK1)
# Sequence: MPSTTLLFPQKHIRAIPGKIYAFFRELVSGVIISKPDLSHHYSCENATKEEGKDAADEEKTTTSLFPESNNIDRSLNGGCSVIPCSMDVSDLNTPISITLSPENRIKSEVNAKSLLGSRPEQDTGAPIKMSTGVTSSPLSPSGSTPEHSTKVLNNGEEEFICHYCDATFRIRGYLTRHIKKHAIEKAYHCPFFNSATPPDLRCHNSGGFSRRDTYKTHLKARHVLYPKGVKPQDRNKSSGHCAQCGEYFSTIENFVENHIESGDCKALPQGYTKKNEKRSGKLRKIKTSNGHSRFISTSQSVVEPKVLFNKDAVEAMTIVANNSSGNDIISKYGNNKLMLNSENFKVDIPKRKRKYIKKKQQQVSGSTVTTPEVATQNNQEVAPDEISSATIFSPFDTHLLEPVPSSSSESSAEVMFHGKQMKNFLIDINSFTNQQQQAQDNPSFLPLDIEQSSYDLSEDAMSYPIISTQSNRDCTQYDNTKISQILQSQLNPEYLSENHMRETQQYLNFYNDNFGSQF
# test: PBM E-score (8-mer binding enrichment) (E-score (-0.5 to 0.5)); higher = stronger / more preferred TF binding
# recordedConditions: protein concentration: 200 nM; construct: GST-full length
The full ranking holds about 33,000 sequences; the median of “E-score (-0.5 to 0.5)” is about -0.016, and the highest 2% start at about 0.32. The entries come from a sample that favours the highest values as a whole.
observationType: PBM E-score

>>> experimentalvalue("CGAGCTAG")
-0.0273
>>> experimentalvalue("GACTGCTC")
-0.287
>>> experimentalvalue("ACCCTGAG")
-0.216
>>> experimentalvalue("TATCAATA")
0.0831
>>> experimentalvalue("CCAAAGAA")
0.068
>>> experimentalvalue("CCCGCCGG")
-0.213
>>> experimentalvalue("GCCGCCCC")
0.378

----------
# targetEntity: Stp1 (UniProt B3LFK1)
# Sequence: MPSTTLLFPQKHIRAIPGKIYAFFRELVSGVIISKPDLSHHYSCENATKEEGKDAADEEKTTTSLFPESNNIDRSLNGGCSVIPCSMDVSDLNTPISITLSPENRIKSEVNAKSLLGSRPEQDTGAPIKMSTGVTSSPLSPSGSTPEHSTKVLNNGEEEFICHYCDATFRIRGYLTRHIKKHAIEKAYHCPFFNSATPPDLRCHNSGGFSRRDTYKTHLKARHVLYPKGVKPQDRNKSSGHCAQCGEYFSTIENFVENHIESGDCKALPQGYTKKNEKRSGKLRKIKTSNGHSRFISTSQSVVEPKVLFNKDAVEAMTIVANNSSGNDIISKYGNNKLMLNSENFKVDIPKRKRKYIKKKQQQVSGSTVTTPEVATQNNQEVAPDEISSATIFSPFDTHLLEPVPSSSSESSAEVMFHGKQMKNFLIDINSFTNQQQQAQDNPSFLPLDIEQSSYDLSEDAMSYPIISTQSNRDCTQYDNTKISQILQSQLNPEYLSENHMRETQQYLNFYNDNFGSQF
# test: PBM E-score (8-mer binding enrichment) (E-score (-0.5 to 0.5)); higher = stronger / more preferred TF binding
# recordedConditions: protein concentration: 200 nM; construct: GST-full length
In all, about 33,000 sequences were measured (“E-score (-0.5 to 0.5)”: median about -0.016, highest 2% from about 0.32 on). The list comes from a sample in which the highest values are over-represented; it also holds close analogues and randomly drawn sequences.
Known PBM E-score of a selection of sequences
observationType: PBM E-score

>>> experimentalvalue("AAACCTCA")
-0.0665
>>> experimentalvalue("AGCAGGCA")
-0.0398
>>> experimentalvalue("GGCGCCTA")
0.362
>>> experimentalvalue("ATGATGCC")
0.337
>>> experimentalvalue("ACGCCTAC")
-0.0656
>>> experimentalvalue("CCCGCACG")
0.222
>>> experimentalvalue("CCAGGCGG")
-0.0554
>>> experimentalvalue("CTAACGGC")
0.313
>>> experimentalvalue("GTGCCTTA")
0.367
>>> experimentalvalue("CGCGCCCC")
0.209
>>> experimentalvalue("ATACGCCG")
0.381
>>> experimentalvalue("CCTGCGAC")
-0.287
>>> experimentalvalue("ATACGCCA")
0.0267
>>> experimentalvalue("ATGATGCG")
0.148
>>> experimentalvalue("GGAATTGA")
0.0238
>>> experimentalvalue("ATGCCGAA")
0.311
>>> experimentalvalue("GGGCTGAC")
-0.134
>>> experimentalvalue("AGCCTTGG")
-0.138
>>> experimentalvalue("CTAATGCC")
0.221
>>> experimentalvalue("ATGGCAAA")
0.197
>>> experimentalvalue("ATACGCCC")
-0.157
>>> experimentalvalue("CGCCCCGC")
0.221
>>> experimentalvalue("TCGGCAGA")
-0.0589
>>> experimentalvalue("GCGCCTAC")
0.35
>>> experimentalvalue("AACGCACG")
0.36
>>> experimentalvalue("CGCCTTGA")
0.0844
>>> experimentalvalue("AGCGCCTA")
0.182
>>> experimentalvalue("AAGCAGGA")
-0.113
>>> experimentalvalue("ACGGCAAT")
0.45
>>> experimentalvalue("GCCATCGA")
0.0584
>>> experimentalvalue("CTCCGCGC")
0.227
>>> experimentalvalue("AACGCACA")
-0.0113
>>> experimentalvalue("ATTCTTCG")
0.00242
>>> experimentalvalue("CTGCTGCA")
-0.169
>>> experimentalvalue("AAGCCCCT")
-0.287
>>> experimentalvalue("ACACGCCG")
0.351
>>> experimentalvalue("ACATAAGC")
0.00404
>>> experimentalvalue("ACGGCAGA")
0.367
>>> experimentalvalue("ACGCACCG")
0.0649
>>> experimentalvalue("AGAACGGG")
-0.129
>>> experimentalvalue("ACGCCTCA")
0.313
>>> experimentalvalue("CCACGCCA")
0.0283
>>> experimentalvalue("GCCTGGTA")
-0.227
>>> experimentalvalue("CCACGCCC")
-0.188
>>> experimentalvalue("GCGCCGAA")
0.389
>>> experimentalvalue("CTGATGCC")
0.187
>>> experimentalvalue("CACCGCGC")
0.166
>>> experimentalvalue("ATGGCAGC")
0.00395
>>> experimentalvalue("CACCCAGA")
-0.257
>>> experimentalvalue("ATGGCAAC")
0.289
>>> experimentalvalue("TCCCAGGA")
-0.255
>>> experimentalvalue("ACTGTGAA")
0.0195
>>> experimentalvalue("ATGCCTCA")
0.279
>>> experimentalvalue("CTGGGGGA")
-0.35
>>> experimentalvalue("ACCATGCC")
0.199
>>> experimentalvalue("CACGCACG")
0.203
>>> experimentalvalue("AACTCTAC")
-0.212
>>> experimentalvalue("AGCGCCCC")
0.0659
>>> experimentalvalue("AAGGCAAG")
0.0628
>>> experimentalvalue("GCGCCCAA")
0.119
>>> experimentalvalue("AAGGCAGG")
-0.236
>>> experimentalvalue("ATAATGCG")
-0.0164
>>> experimentalvalue("GCCGCCTA")
0.185
>>> experimentalvalue("CGAACGGC")
0.467
>>> experimentalvalue("CGCGCCGC")
0.483
>>> experimentalvalue("GTGCCTCA")
0.365
>>> experimentalvalue("ACGGCAAC")
0.455
>>> experimentalvalue("ACGGCAAA")
0.45
>>> experimentalvalue("CCCGCACC")
-0.149
>>> experimentalvalue("CGCCTTGC")
0.35
>>> experimentalvalue("AGCCTTTC")
-0.0105
>>> experimentalvalue("AGCCTTGA")
-0.0777
>>> experimentalvalue("ACTAAGGA")
-0.105
>>> experimentalvalue("GTGCCTGA")
-0.105
>>> experimentalvalue("GCGCCACA")
0.334
>>> experimentalvalue("GCGCCCCA")
0.353
>>> experimentalvalue("ACACGCCC")
-0.181
>>> experimentalvalue("ATAATGCC")
0.325

----------
# targetEntity: Stp1 (UniProt B3LFK1)
# Sequence: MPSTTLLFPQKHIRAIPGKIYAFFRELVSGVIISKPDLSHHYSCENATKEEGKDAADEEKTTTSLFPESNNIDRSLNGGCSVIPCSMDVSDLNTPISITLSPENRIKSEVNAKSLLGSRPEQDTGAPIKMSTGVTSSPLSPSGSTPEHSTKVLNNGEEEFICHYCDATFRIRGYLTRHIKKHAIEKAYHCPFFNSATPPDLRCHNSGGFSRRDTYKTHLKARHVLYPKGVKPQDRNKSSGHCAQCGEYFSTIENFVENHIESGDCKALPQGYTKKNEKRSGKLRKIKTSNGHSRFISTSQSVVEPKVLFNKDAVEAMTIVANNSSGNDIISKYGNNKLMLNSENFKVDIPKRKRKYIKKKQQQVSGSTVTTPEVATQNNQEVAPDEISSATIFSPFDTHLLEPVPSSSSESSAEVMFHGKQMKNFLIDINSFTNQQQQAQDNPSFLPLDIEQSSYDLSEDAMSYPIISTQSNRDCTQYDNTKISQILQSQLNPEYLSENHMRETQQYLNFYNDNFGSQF
# test: PBM E-score (8-mer binding enrichment) (E-score (-0.5 to 0.5)); higher = stronger / more preferred TF binding
# recordedConditions: protein concentration: 200 nM; construct: GST-full length
In all, about 33,000 sequences were measured (“E-score (-0.5 to 0.5)”: median about -0.016, highest 2% from about 0.32 on). What follows is part of a selection rich in the highest values, with near analogues and random picks from the rest.
Short version: PBM E-score at least 0.1 is YES, less is NO.

>>> assignedlabel("CTCGCCAC")
"NO"
>>> assignedlabel("CGCGCGAA")
"YES"
>>> assignedlabel("AGGCGAAC")
"YES"
>>> assignedlabel("CATGCCGC")
"YES"
>>> assignedlabel("GTCTACAA")
"NO"
>>> assignedlabel("GAAGGCGA")
"YES"
>>> assignedlabel("AAATGCAA")
"NO"
>>> assignedlabel("GGCGCGAA")
"YES"
>>> assignedlabel("AGCCGAAC")
"NO"
>>> assignedlabel("CGCGCGAC")
"YES"
>>> assignedlabel("CGCCGAAG")
"YES"
>>> assignedlabel("CATAGACA")
"NO"
>>> assignedlabel("GATGCCGC")
"YES"
>>> assignedlabel("CTGCGAAG")
"NO"
>>> assignedlabel("CGGCGAAC")
"YES"
>>> assignedlabel("AGAGGCAT")
"YES"
>>> assignedlabel("GAGATTAC")
"NO"
>>> assignedlabel("ACCTGGAT")
"NO"
>>> assignedlabel("AACCTATG")
"NO"
>>> assignedlabel("ATCGCCGC")
"YES"
>>> assignedlabel("ACAATCAT")
"NO"
>>> assignedlabel("AAAGGCGG")
"YES"
>>> assignedlabel("ACCTACAT")
"NO"
>>> assignedlabel("CGTGCAAC")
"YES"
>>> assignedlabel("CGTTGACA")
"NO"
>>> assignedlabel("AGGGCACG")
"YES"
>>> assignedlabel("CTCGCCGC")
"YES"
>>> assignedlabel("GCAGGCGC")
"YES"
